Reference source: ChEMBL document CHEMBL1201862

Tested on: SF-268
Experiment: NCI tumour cell line growth inhibition, 48 h
Active and inactive are the calls of the source. No stated cut-off is given here; in the data, active = GI50 up to about 1.1 µM and inactive = higher.
Return exactly one item of 1 (active), 0 (inactive)

# example entries with known answers
O=C1C=C(OCCCCl)C(=O)c2c(O)ccc(O)c21
0
O=C(O)CN1C(=O)CN=C(c2ccccn2)c2cc(Cl)ccc21
0
Cc1cccc2oc3c(CC(=O)O)cccc3c(=O)c12
0
COc1ccc(C(OCC2OC(n3ccc(NC(=O)c4ccccc4)nc3=O)C(O)C2O)(c2ccccc2)c2ccccc2)cc1 (stereo unspecified)
0
NNC(=O)c1ccccc1NC(=O)/C(=C/c1ccccc1)NC(=O)c1ccccc1
0
O=C1C=C(Nc2ccccc2C(=O)CC(=O)C(=O)Nc2ccc(Cl)cc2)c2ccccc2C1=O
0

Request: Check the results log: what was the call for COc1cc2c(cc1OC)C(=O)/C(=C/c1ccccc1)C2 ?
Result: 0

Request: Check the results log: what was the call for N=C(N)NS(=O)(=O)c1ccc(Nc2c3ccccc3nc3c(C(=O)N4CCN(CCO)CC4)ccc(Cl)c23)cc1 ?
Result: 0

Request: Check the results log: what was the call for NC(=O)c1nnc2cc(F)c(F)cc2c1N ?
Result: 0

Request: Check the results log: what was the call for O=[N+]([O-])c1ccc(-c2cc(O)c3nc4ccccc4n3c2)cc1 ?
Result: 0

Request: Check the results log: what was the call for Clc1ccc(-c2nc3cc(Cl)ccc3[nH]2)cc1 ?
Result: 0

Request: Check the results log: what was the call for CC12C/C(=C\c3ccccc3)C(=O)C3C1CCCC32 ?
Result: 0

Request: Check the results log: what was the call for COc1ccc(OC)c(C(=O)/C=C/c2cc(O)c(O)cc2F)c1 ?
Result: 1

Request: Check the results log: what was the call for N#Cc1sc2c(c1OC(=O)c1ccc(C(F)(F)F)cc1)c(=O)n(-c1ccccc1)c(=S)n2-c1ccccc1 ?
Result: 0

Request: Check the results log: what was the call for CCCC(=O)c1c(NOC2OC(COC(C)=O)C(OC(C)=O)C(OC(C)=O)C2OC(C)=O)nc(OC)n(C)c1=O (stereo unspecified) ?
Result: 0

Request: Check the results log: what was the call for O=C(C=C1SCCS1)/C=C\c1ccc(Cl)cc1 ?
Result: 0

Request: Check the results log: what was the call for CCOC(=O)c1c[nH]c2c(Sc3ccccc3)nccc2c1=O ?
Result: 0

Request: Check the results log: what was the call for O=C(Nc1ccccc1)N(CCCCN(Cc1ccccc1)C(=O)Nc1ccccc1)Cc1ccccc1 ?
Result: 0

Request: Check the results log: what was the call for COc1cc(/C=C2/SC(c3ccccc3)N(Cc3ccccc3)C2=O)cc(OC)c1OC (stereo unspecified) ?
Result: 0

Request: Check the results log: what was the call for CC1CC2(S(=O)(=O)c3ccccc3)ON1CC2S(=O)(=O)c1ccccc1 (stereo unspecified) ?
Result: 0

Request: Check the results log: what was the call for COc1ccc2[nH]c3c(c2c1)COc1ccccc1C3=O ?
Result: 0
